Give EC50 for every item shown.
# system_tested: Zinc finger protein mex-5 (Caenorhabditis elegans)
# Sequence (Q9XUB2 whole entry): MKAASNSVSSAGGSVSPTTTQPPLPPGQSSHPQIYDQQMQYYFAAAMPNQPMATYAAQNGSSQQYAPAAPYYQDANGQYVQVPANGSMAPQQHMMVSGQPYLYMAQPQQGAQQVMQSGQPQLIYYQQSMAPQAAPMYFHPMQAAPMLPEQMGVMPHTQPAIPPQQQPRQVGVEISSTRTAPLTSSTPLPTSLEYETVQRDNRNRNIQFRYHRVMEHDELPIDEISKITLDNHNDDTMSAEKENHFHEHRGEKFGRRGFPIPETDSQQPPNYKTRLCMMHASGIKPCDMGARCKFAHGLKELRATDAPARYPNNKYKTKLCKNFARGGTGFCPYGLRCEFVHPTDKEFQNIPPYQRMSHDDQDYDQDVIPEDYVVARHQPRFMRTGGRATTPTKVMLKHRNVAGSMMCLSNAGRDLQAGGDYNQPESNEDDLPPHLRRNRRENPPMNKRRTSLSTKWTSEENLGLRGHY
# assay_method_text: potency of MEX-5 RNA-binding blockers – biochemical, C. elegans, fluorescence polarization, dose response (AID 1960)
Activity calls are given as the source filed them.

-- ask # get_value(readout='EC50', item= C=CCN=C(S)N1CCN(c2cccc(C(F)(F)F)c2)CC1 )
-- reply > 300 µM (not active)

-- ask Would you kindly repeat that for CNc1nnc(-c2cc3ccccc3oc2=O)s1 ?
-- reply > 300 µM (not active)

-- ask Cool, now Cc1cc(C(=O)O)ccc1-n1c(C)cc(/C=C(/C#N)C(=O)Nc2ccccc2)c1C
-- reply > 300 µM (not active)

-- ask CC(=N)/C(C#N)=C(/O)CSc1ncnc2ccccc12 ?
-- reply 8.02 µM (active)

-- ask Now this one: N=C1NC(=O)/C(=C/c2ccc(-c3ccc(S(N)(=O)=O)cc3)o2)S1
-- reply 15 µM (active)

-- ask Same question for COc1ccc(C2C(C#N)=C(N)OC3=C2C(=O)CC(C)(C)C3)c(OC)c1OC (configuration not stated) please.
-- reply > 300 µM (not active)

-- ask Another compound to look at: O=[N+]([O-])c1ccc(/C=N/n2cnc3ccccc32)s1
-- reply > 300 µM (inconclusive)

-- ask Lookup Oc1[nH]c2ccccc2c1N=Nc1ccccc1
-- reply 18.3 µM (inconclusive)

-- ask Repeat for the following compound: COc1ccc(C(=O)Nc2nc(-c3ccc([N+](=O)[O-])cc3)c(-c3ccccc3)s2)cc1
-- reply > 300 µM (not active)

-- ask // next record CC1=C(C#N)C(=O)N(C)C(=O)/C1=C\N
-- reply > 300 µM (not active)

-- ask Okay, and Cc1cccc(N2C(=O)/C(=C/c3ccc(CN(CCC#N)S(C)(=O)=O)o3)C(=O)NC2=S)c1 ?
-- reply 41.2 µM (active)

-- ask Same read-out for NC(=O)C[n+]1cccc2ccccc21 ?
-- reply 22.3 µM (active)

---

# system_tested: Alkaline phosphatase, placental type (Homo sapiens, UniProt P05187)
# Sequence (P05187 whole entry): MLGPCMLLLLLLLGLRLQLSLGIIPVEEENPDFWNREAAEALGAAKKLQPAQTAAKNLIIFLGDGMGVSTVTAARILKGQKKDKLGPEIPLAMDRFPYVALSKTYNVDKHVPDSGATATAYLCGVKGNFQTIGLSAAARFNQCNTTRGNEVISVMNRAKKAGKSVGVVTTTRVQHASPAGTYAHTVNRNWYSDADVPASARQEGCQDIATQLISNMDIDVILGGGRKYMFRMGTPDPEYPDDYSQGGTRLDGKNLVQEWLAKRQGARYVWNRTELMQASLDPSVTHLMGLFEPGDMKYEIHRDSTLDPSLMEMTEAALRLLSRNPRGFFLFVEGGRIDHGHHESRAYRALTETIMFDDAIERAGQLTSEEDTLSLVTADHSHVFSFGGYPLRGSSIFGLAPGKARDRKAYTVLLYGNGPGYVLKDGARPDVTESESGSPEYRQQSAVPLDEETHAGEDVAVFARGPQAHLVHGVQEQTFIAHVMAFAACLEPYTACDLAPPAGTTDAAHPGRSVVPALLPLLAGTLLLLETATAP
# assay_method_text: human placental alkaline phosphatase inhibition – biochemical, luminescence, confirmation (AID 1512)
# Assay type: functional
The source made the active and inactive calls.
Entry note: the call must match one of TRUE (active), FALSE (inactive)

-- ask Recorded test call requested for Cc1cc(C)c2c(O)nc(SCC(=O)c3ccc(O)c(O)c3)nc2n1
-- reply TRUE

-- ask One more molecule: Nc1nnc(-c2cc3ccccc3oc2=O)s1
-- reply FALSE

-- ask Also CNc1nnc(-c2cc3ccccc3oc2=O)s1 , if possible.
-- reply TRUE

-- ask How about this molecule: CCc1nccn1CC(=O)c1ccc(O)c(O)c1
-- reply TRUE
